Source listed as paper PMC11232110.

parameter: pIC50
Here pIC50 is given on a logarithmic scale as minus log10 of the concentration in mol/L.

-- ask # value lookup — system enoyl acyl carrier protein reductase (InhA) (Mycobacterium tuberculosis, UniProt P9WGR1), readout pIC50, item O=c1cc(-c2ccccc2)c2cc(Cl)c(OCc3nnn(CCN4CCOCC4)n3)cc2o1 [4c]
-- reply 6.25
